Biological target: human VDR (Homo sapiens)
Construct: expressed in transfected cells; host or cells: COS cells or CV-1 cells (VDR expressed in pSG5)
Sequence (P11473 whole entry): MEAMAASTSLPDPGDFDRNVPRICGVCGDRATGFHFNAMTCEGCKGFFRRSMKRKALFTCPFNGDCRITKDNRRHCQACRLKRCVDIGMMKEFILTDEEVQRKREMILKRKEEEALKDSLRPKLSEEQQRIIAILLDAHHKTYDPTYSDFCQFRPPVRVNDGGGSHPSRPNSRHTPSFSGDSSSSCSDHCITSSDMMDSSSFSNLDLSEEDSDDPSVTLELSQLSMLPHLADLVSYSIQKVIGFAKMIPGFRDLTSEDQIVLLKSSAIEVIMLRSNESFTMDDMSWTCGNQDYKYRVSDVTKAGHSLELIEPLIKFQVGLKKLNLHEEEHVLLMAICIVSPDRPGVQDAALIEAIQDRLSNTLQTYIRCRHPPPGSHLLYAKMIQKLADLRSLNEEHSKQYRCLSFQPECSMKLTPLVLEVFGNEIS
Experiment: VDR activation (transcription activation assay, luciferase reporter)
Type: cell-based
Details: CV-1 cells; half-maximal induction of luciferase activity
measurementName: EC50

Prompt line: Query for human VDR (Homo sapiens): what EC50 does the record show for `C=C1/C(=C\C=C2/CCC[C@]3(C)[C@@H]([C@H](C)CCCC(C)(C)O)CCC[C@@H]23)C[C@@H](O)C[C@@H]1O` ?
Response line: 0.04 nM

###

System: HL-60 cells
Experiment: HL-60 differentiation (NBT reduction, oxidative burst potential)
Assay type: cell-based
Conditions: Homo sapiens, HL-60, 72 h; 3 days; 50% of maximal differentiation achieved with 100-1000 nM calcitriol
In this section, each of the molecules is paired with its reported pEC50.
Conceptually, pEC50 converts a concentration in mol/L into minus its log10.

C=C1/C(=C\C=C2/CCC[C@]3(C)[C@@H]([C@H](C)CCCC(C)(C)O)CC[C@@H]23)C[C@@H](O)C[C@@H]1O [Calcitriol, reference compound]
8.30

# next molecule below
Prompt line: Quick one: pEC50 for C=C1/C(=C\C=C2/CCC[C@]3(C)[C@@H]([C@H](C)CCCC(C)(C)O)CCC[C@@H]23)C[C@@H](O)C[C@@H]1O [Compound of formula I] ?
Response line: 9.43

// provenance: patent US5905074A
